Protein target, amino acids: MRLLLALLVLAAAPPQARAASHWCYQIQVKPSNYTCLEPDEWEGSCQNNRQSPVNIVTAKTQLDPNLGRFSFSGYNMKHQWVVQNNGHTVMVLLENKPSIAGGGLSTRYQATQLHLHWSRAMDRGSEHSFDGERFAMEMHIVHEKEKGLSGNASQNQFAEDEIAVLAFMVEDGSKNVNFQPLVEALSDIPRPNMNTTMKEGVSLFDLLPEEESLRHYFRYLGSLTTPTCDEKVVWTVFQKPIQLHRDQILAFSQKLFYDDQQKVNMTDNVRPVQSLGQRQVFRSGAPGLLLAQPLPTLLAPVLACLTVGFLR
pKi: −log10 of the molar value.
measured.endpoint: pKi

a = CC(C)C(=O)Nc1ccc(S(N)(=O)=O)cc1
b = CCN[C@H]1CC(CCCOC)S(=O)(=O)c2sc(S(N)(=O)=O)cc21 (stereo partly specified)
Which record shows the lower pKi: the first, a , or the second, b ? Mark your answer with the label of the selected entry.
a

====

Sequence of the target: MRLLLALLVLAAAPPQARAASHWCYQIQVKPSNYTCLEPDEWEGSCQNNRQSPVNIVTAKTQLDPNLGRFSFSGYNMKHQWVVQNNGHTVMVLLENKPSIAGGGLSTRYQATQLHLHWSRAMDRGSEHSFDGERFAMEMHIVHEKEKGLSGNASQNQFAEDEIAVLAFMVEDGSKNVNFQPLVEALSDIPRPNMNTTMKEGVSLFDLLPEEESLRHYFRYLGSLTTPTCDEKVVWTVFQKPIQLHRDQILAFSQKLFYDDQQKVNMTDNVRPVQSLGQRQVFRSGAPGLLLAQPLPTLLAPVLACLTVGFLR
pKi: −log10 of the molar value.
measured.endpoint: pKi

Solved cases (6 shown):
>>> reported_result("CC(=O)Nc1ccc(S(N)(=O)=O)cc1")
5.55
>>> reported_result("CC(C)(C)C(=O)Nc1nnc(S(N)(=O)=O)s1")
6.73
>>> reported_result("CCC(=O)Nc1ccc(S(N)(=O)=O)cc1")
5.58
>>> reported_result("NS(=O)(=O)c1ccc(CCNS(=O)(=O)c2ccccc2)cc1")
7.41
>>> reported_result("Cn1nc(S(N)(=O)=O)s/c1=N/C(=O)c1ccco1")
7.52
>>> reported_result("Cn1nc(S(N)(=O)=O)s/c1=N/C(=O)CCCCC(F)(F)C(F)(F)F")
8.10

1 = CCCC(=O)Nc1ccc(S(N)(=O)=O)cc1
2 = CC(=O)Nc1ccc(S(=O)(=O)Nc2nnc(S(N)(=O)=O)s2)cc1Cl
3 = Cn1nc(S(N)(=O)=O)s/c1=N/C(=O)c1ccccc1
Sort the compounds on pKi; start with the lowest figure. Returns: the labels listed in the requested order.
1, 3, 2
(1: 5.60, 3: 6.76, 2: 8.40)
